- Test system: NCI/ADR-RES ovarian
- procedure.summary: NCI tumour cell line growth inhibition, 48 h
# GI50 per entry

- molecule: "Cc1cccc2c1[nH]c(=O)c1c3ccccc3cn21"
  target.entity: "NCI/ADR-RES ovarian"
  GI50: "12.1 µM"
- molecule: "COc1cc(NCCCCCN=C(N)NC(N)=NC(C)C)c2ncccc2c1"
  target.entity: "NCI/ADR-RES ovarian"
  GI50: "> 100 µM"
- molecule: "O=P(O)(O)OCC1OC(n2cnc3c(NCc4ccccc4)ncnc32)C(O)C1O (stereo not given)"
  target.entity: "NCI/ADR-RES ovarian"
  GI50: "1.19 µM"
- molecule: "CCn1c(-c2nonc2N)nc2c(N3CCCC3)nccc21"
  target.entity: "NCI/ADR-RES ovarian"
  GI50: "10.7 µM"
- molecule: "O=C(/C=C/C12c3ccccc3C(c3ccccc31)C1C(=O)NC(=O)C12)c1ccccc1 (stereo not given)"
  target.entity: "NCI/ADR-RES ovarian"
  GI50: "1.92 µM"
- molecule: "COc1c(N2CCN(CN3C(=O)C(=Nc4ccc(S(=O)(=O)Nc5ncccn5)cc4)c4cc(Cl)ccc43)C(C)C2)c(F)cc2c(=O)c(C(=O)O)cn(C3CC3)c12 (stereo not given)"
  target.entity: "NCI/ADR-RES ovarian"
  GI50: "12.3 µM"
- molecule: "CN1CCN(CCCOc2cc(O)c3c(=O)cc(-c4ccccc4)oc3c2)CC1"
  target.entity: "NCI/ADR-RES ovarian"
  GI50: "18.6 µM"
- molecule: "COc1ccc2[nH]c(C(=O)OCc3ccc4c(Cl)cc(Cl)c(O)c4n3)cc2c1"
  target.entity: "NCI/ADR-RES ovarian"
  GI50: "2.08 µM"
- molecule: "CC/C(=C/c1ccc(OC)cc1OC)[N+](=O)[O-]"
  target.entity: "NCI/ADR-RES ovarian"
  GI50: "3.17 µM"
- molecule: "CCN(Cc1c(F)cccc1Cl)c1ccc(CO)c(Cl)c1"
  target.entity: "NCI/ADR-RES ovarian"
  GI50: "10.4 µM"

These measurements were taken from PubChem BioAssay (NCI).
